# TARGET_ENTITY: Sodium channel protein type 9 subunit alpha (Homo sapiens, UniProt Q15858)
# Sequence (Q15858 whole entry): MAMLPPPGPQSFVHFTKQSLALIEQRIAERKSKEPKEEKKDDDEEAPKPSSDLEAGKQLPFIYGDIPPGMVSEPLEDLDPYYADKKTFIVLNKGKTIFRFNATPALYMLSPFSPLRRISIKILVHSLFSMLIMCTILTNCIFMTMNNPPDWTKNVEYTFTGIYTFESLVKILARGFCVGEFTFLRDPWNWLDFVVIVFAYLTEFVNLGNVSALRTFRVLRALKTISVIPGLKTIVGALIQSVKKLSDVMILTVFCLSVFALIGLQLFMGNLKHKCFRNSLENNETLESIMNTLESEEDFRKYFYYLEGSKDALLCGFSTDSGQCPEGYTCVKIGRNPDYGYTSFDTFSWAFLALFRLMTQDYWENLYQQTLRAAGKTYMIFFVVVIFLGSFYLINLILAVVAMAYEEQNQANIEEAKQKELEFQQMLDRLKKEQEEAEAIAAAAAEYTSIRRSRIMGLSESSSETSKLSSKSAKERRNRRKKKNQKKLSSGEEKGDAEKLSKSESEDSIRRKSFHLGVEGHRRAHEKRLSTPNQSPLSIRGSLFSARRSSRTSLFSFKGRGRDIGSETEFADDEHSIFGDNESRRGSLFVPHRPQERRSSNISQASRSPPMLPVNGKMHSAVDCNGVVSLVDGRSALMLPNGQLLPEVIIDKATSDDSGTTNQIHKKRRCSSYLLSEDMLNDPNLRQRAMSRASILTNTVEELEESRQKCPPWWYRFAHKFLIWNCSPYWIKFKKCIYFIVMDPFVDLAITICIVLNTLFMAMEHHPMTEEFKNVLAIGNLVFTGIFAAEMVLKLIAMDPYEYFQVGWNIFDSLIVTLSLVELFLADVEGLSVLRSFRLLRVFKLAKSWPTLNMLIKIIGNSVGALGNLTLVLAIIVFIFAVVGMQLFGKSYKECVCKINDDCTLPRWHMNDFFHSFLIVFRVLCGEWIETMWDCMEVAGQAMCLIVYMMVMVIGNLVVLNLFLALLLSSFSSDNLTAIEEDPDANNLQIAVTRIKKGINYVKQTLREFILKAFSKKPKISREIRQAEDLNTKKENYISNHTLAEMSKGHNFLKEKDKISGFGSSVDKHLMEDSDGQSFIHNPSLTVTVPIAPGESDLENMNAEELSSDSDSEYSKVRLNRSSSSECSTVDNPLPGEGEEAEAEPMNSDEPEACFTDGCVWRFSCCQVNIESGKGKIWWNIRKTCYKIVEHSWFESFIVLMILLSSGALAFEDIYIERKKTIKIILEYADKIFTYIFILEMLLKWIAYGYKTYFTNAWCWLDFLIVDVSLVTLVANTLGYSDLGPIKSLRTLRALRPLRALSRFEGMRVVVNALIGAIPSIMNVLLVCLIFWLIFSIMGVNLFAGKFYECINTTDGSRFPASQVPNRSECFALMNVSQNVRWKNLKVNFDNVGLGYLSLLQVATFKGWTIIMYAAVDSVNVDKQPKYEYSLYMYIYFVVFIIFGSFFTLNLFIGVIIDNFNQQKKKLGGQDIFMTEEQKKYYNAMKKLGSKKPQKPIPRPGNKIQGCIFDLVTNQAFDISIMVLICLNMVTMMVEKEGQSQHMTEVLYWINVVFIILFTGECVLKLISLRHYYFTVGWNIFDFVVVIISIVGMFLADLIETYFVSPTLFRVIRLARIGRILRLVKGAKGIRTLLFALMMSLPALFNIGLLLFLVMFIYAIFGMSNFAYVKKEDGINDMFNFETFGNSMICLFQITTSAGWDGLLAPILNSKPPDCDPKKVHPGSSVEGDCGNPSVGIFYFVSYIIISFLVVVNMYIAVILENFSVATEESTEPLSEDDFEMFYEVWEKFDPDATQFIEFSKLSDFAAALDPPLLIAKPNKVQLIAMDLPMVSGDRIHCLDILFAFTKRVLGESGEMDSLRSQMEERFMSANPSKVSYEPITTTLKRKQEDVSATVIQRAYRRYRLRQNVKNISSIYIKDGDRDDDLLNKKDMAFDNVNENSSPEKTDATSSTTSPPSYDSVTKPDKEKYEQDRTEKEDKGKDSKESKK
# METHOD_NOTES: Inhibition of Nav1.7 (unknown origin) expressed in CHO cells after 45 mins by FLIPR assay
OUTCOME_MEASURE: IC50 (nM)
Your answer is read as nM, so omit the unit and give the number.

Q) Look at this molecule and give its reported IC50. `CC(=O)N1CCN(c2ccc(C(F)(F)F)cc2)c2ccc(-c3cccc(C(N)=O)n3)cc2C1`
A) 380

---

For each of the molecules below, state its solubility kinetic.
# METHOD_NOTES: Kinetic solubility of the compound at pH 6.8
# Format: physicochemical
# CONDITION_NOTES: buffer, read-out: Kinetic_solubility
Your answer is read as µM, so omit the unit and give the number.

Q) Look at this molecule and give its reported solubility kinetic. `NC(=O)c1cccc(-c2ccc3c(c2)CNCCN3c2ccc(C(F)(F)F)cc2)n1`
A) 0.59

Q) Look at this molecule and give its reported solubility kinetic. `NC(=O)c1cccc(-c2ccc3c(c2)OCCCN3c2ccc(C(F)(F)F)cc2)n1`
A) 0.08

Q) Look at this molecule and give its reported solubility kinetic. `CC(=O)N1CCN(c2ccc(C(F)(F)F)cc2)c2ccc(-c3cccc([C@H](O)CO)n3)cc2C1`
A) 39

Q) Look at this molecule and give its reported solubility kinetic. `NC(=O)c1cccc(-c2ccc3c(c2)CCCCN3c2ccc(C(F)(F)F)cc2)n1`
A) 0.02

Q) Look at this molecule and give its reported solubility kinetic. `NC(=O)N1CCN(c2ccc(C(F)(F)F)cc2)c2ccc(-c3cccc([C@H](O)CO)n3)cc2C1`
A) 1

---

# System: MDR1
# METHOD_NOTES: Efflux ratio of permeability from basolateral to apical side over apical to basolateral side in MDCK cells expressing MDR1
# Format: ADME, cell-based, Canis lupus familiaris
# CONDITION_NOTES: dog
OUTCOME_MEASURE: efflux ratio

Q) Look at this compound and give its reported efflux ratio. `CC(=O)N1CCN(c2ccc(C(F)(F)F)cc2)c2ccc(-c3cccc([C@H](O)CO)n3)cc2C1`
A) 31

---

# TARGET_ENTITY: Sodium channel protein type 9 subunit alpha (Homo sapiens, UniProt Q15858)
# METHOD_NOTES: Inhibition of Nav1.7 (unknown origin) by electrophysiological assay
OUTCOME_MEASURE: Ki
State the value with its unit after it.

Q) What value of Ki on Sodium channel protein type 9 subunit alpha (Homo sapiens, UniProt Q15858) does `CNC(=O)CN1CCN(c2ccc(C(F)(F)F)cc2)c2ccc(-c3cccc([C@H](O)CO)n3)cc2C1` have?
A) 440 nM

Q) What value of Ki on Sodium channel protein type 9 subunit alpha (Homo sapiens, UniProt Q15858) does `CS(=O)(=O)N1CCN(c2ccc(C(F)(F)F)cc2)c2ccc(-c3cccc([C@H](O)CO)n3)cc2C1` have?
A) 230 nM

---

# METHOD_NOTES: Cmax in Sprague-Dawley rat at 3 mg/kg, po
# Type: ADME, organism-based
# Design: dose 3 mg/kg, route oral
# CONDITION_NOTES: in vivo
For each of the compounds below, state its Cmax.
Your answer is read as ng/mL, so omit the unit and give the number.

Q) Look at this compound and give its reported Cmax. `NC(=O)N1CCN(c2ccc(C(F)(F)F)cc2)c2ccc(-c3cccc([C@H](O)CO)n3)cc2C1`
A) 21

Q) Look at this compound and give its reported Cmax. `CC(=O)N1CCN(c2ccc(C(F)(F)F)cc2)c2ccc(-c3cccc([C@H](O)CO)n3)cc2C1`
A) 94

Data credit: ChEMBL document CHEMBL3576839
